Literature compilation of IC50 measurements on Tyrosine-protein kinase JAK2 (Homo sapiens).

Worked examples follow.
{"Compound": "CCOCCOC(=O)Cn1cc(Nc2ncc3ccn(CC(CC)C(C)C)c3n2)cn1 (stereo not shown)", "Result": "< 0.1 µM"}
{"Compound": "Cc1ccc(OC[C@H](O)CNc2ccnc(O)c2-c2nc3cc4c(cc3[nH]2)C(=O)N(C2CCN(C)CC2)C4=O)c(C)n1", "Result": "0.5 to 5 µM"}
{"Compound": "C[C@@H](O)c1nc2cnc3[nH]ccc3c2n1N1CCCC(CC#N)CC1 (stereo partly shown)", "Result": "0.0023 µM"}

Now take the following compound into account.
stdin: Form field: reported IC50 of Cc1cnc(Nc2ccc(-n3cccn3)cc2)nc1-c1cnn(C(CC#N)C2CCCC2)c1 (racemic)
stdout: < 0.1 µM

###

For reference, the following IC50 results for Tyrosine-protein kinase JAK2 (Homo sapiens, UniProt O60674) were taken from various sources.

These solved cases illustrate the format of a correct answer.
{"Molecule": "N#CCC1(n2ccc(-c3ncnc4[nH]ccc34)c2)CN(C2CCN(C(=O)c3cc(OC(F)(F)F)ccc3F)CC2)C1", "System Tested": "Tyrosine-protein kinase JAK2 (Homo sapiens, UniProt O60674)", "Value Kind": "IC50", "Result": "0.01 to 0.05 µM"}
{"Molecule": "CCC(CC)n1cc(-c2nc(-c3cnn([C@H]4C[C@@H](CO)C4)c3)cn3nccc23)cn1", "System Tested": "Tyrosine-protein kinase JAK2 (Homo sapiens, UniProt O60674)", "Value Kind": "IC50", "Result": "0.01 to 0.1 µM"}
{"Molecule": "O=C(NCCC(F)(F)F)c1nsc2c1CN(c1ncnc3[nH]ccc13)CC2", "System Tested": "Tyrosine-protein kinase JAK2 (Homo sapiens, UniProt O60674)", "Value Kind": "IC50", "Result": "< 0.1 µM"}

stdin: Any idea what IC50 was measured for "COc1cc(Nc2ncnc(-c3ccc(O[C@H]4CCN(C(=O)CC#N)C[C@H]4F)c(C#N)c3)n2)ccc1N1CCC(N2CCOCC2)CC1" ?
stdout: 0.062 µM

stdin: CC1CCOCc2cc(ccc2OC2CC2)Nc2nccc(n2)-c2ccc(cc2[N+](=O)[O-])C(=O)NC1 (stereo not shown) , same question.
stdout: > 10 µM

stdin: Further, for N#Cc1cc(-c2ncnc(Nc3ccc(N4CCN(C5COC5)CC4)cc3)n2)ccc1OC1CN(C(=O)CO)CC1(F)F (stereo not shown) ?
stdout: 0.119 µM

stdin: Now the same for "COCCC1(n2cc(-c3nc(-c4cnn(C)c4)cc4nccn34)cn2)CN(S(=O)(=O)C(F)(F)F)C1"
stdout: > 1 µM

###

// compounds with reported IC50 on Tyrosine-protein kinase JAK2 (Homo sapiens, UniProt O60674), multi-publication

Use these answered entries as a reference point.
{"Compound": "N#CCC(C1CCCC1)n1cc(-c2ccnc(Nc3cccc(NC(=O)CN4CCC(O)CC4)c3)n2)cn1 (racemic)", "System Tested": "Tyrosine-protein kinase JAK2 (Homo sapiens, UniProt O60674)", "Result": "< 100 nM"}
{"Compound": "O=C(NCCN1CCS(=O)(=O)CC1)c1noc2c1CN(c1ncnc3[nH]ccc13)CC2", "System Tested": "Tyrosine-protein kinase JAK2 (Homo sapiens, UniProt O60674)", "Result": "> 2000 nM"}
{"Compound": "CN1Cc2ccccc2-c2n[nH]c3ccnc1c23", "System Tested": "Tyrosine-protein kinase JAK2 (Homo sapiens, UniProt O60674)", "Result": "2100 nM"}
{"Compound": "N#Cc1cc(-c2ncnc(Nc3ccc(N4CCN(C5COC5)CC4)cc3)n2)ccc1O[C@H]1CCN(C(=O)[C@@H]2COCCN2)C[C@H]1F", "System Tested": "Tyrosine-protein kinase JAK2 (Homo sapiens, UniProt O60674)", "Result": "≥ 1000 nM"}
{"Compound": "N#CCC1(n2cc(-c3ncnc4[nH]ccc34)cn2)CN(C2CCN(C(=O)Cc3ccccc3)CC2)C1", "System Tested": "Tyrosine-protein kinase JAK2 (Homo sapiens, UniProt O60674)", "Result": "10 to 50 nM"}
{"Compound": "COc1cc(Nc2ncnc(-c3ccc(N4C[C@H](O)CCC4=O)c(C#N)c3)n2)ccc1N1CCN(C2COC2)CC1", "System Tested": "Tyrosine-protein kinase JAK2 (Homo sapiens, UniProt O60674)", "Result": "174 nM"}
{"Compound": "CCn1c(C(=O)N(C2CC2)C2CC2)cc2c3c(ncn3C)c(Nc3nc(C)n(C)n3)nc21", "System Tested": "Tyrosine-protein kinase JAK2 (Homo sapiens, UniProt O60674)", "Result": "50 nM"}
{"Compound": "N#CCC1(n2cc(-c3ncnc4[nH]ccc34)cn2)CN(C2CCN(C(=O)c3ccc(-c4ccc5ccncc5c4)c(F)c3)CC2)C1", "System Tested": "Tyrosine-protein kinase JAK2 (Homo sapiens, UniProt O60674)", "Result": "10 to 50 nM"}

stdin: // returns reported IC50 for input "O=C1NCCCCOCc2cccc(c2)Nc2nccc(n2)-c2ccc1cc2F"
stdout: 101 to 1000 nM

stdin: Now give it for CCC(CC)n1cc(-c2nc(-c3cnn(CC(O)CO)c3)cn3nccc23)cn1 (stereo not drawn) too.
stdout: 10 to 100 nM

stdin: Same thing, different compound: "CN1CCC(N2Cc3cc4nc(-c5c(N[C@@H](CO)Cc6ccccc6)cc[nH]c5=O)[nH]c4cc3C2=O)CC1"
stdout: 500 to 5000 nM

stdin: Please do the same for "CCS(=O)(=O)N1CC(CC#N)(n2cc(-c3nc(Nc4cnn(CC(F)(F)F)c4)nc4ccsc34)cn2)C1" as well.
stdout: < 50 nM

stdin: // same read-out, input: "CS(=O)(=O)N1CCN(c2ccc(Nc3nc(Nc4cccc(S(N)(=O)=O)c4)c4cc[nH]c4n3)cc2)CC1"
stdout: 100 to 1000 nM

stdin: Moving on to the next compound: CC(=O)N[C@H]1CCN(C(=O)c2ccc(Nc3nccc(-c4cnn(C(CC#N)C5CCCC5)c4)n3)cc2)C1 (stereo partly drawn)
stdout: < 100 nM

stdin: "Cc1noc(C)c1-c1cc(C(N)=O)c2[nH]c3cc(C(=O)N4CCOCC4)ccc3c2n1" , same question.
stdout: 146 nM
